Every entry's value here was drawn from paper PMC7734625.

Listing of entries alongside the reported tissue uptake at 4 h.
- ASSAY DETAILS: biodistribution in A431-CCK2R/A431-mock xenografted BALB/c nude mice
- Type: in vivo
- CONDITIONS: female, athymic BALB/c nude, mouse, lung, iv, 20 pmol, total radioactivity, 20 pmol, 4 h p.i.; read-out: uptake in lung
Non-standard residues stand in square brackets, D forms with d. Residues, ends and D or L forms follow the SMILES beside them. *: point of attachment. DOTA = O=C(O)CN1CCN(CC(=O)O)CCN(CC(=O)*)CCN(CC(=O)O)CC1; 1Nal = N[C@@H](Cc1cccc2ccccc12)C(=O)O; NMeNle = CCCC[C@H](NC)C(=O)O

MOLECULE	tissue uptake at 4 h / %ID/g
CCCC[C@@H](C(=O)N[C@@H](CC(=O)O)C(=O)N[C@@H](Cc1cccc2ccccc12)C(N)=O)N(C)C(=O)[C@H](Cc1c[nH]c2ccccc12)NC(=O)CNC(=O)[C@H](Cc1ccc(O)cc1)NC(=O)[C@@H]1CCCN1C(=O)[C@@H](CCC(=O)O)NC(=O)CN1CCN(CC(=O)O)CCN(CC(=O)O)CCN(CC(=O)O)CC1 [[^177Lu]Lu-1, metal not drawn] ({DOTA}-[dE]PYGW[NMeNle]D[1Nal]-NH2)	0.14
CCCC[C@@H](C(=O)N[C@@H](CC(=O)O)C(=O)N[C@@H](Cc1cccc2ccccc12)C(N)=O)N(C)C(=O)[C@H](Cc1c[nH]c2ccccc12)NC(=O)[C@@H]1CCCN1C(=O)[C@H](Cc1ccc(O)cc1)NC(=O)[C@H](C)NC(=O)[C@@H](CCC(=O)O)NC(=O)CN1CCN(CC(=O)O)CCN(CC(=O)O)CCN(CC(=O)O)CC1 [[^177Lu]Lu-3, metal not drawn] ({DOTA}-[dE]AYPW[NMeNle]D[1Nal]-NH2)	0.17
CCCC[C@@H](C(=O)N[C@@H](CC(=O)O)C(=O)N[C@@H](Cc1cccc2ccccc12)C(N)=O)N(C)C(=O)[C@H](Cc1c[nH]c2ccccc12)NC(=O)CNC(=O)[C@@H]1CCCN1C(=O)[C@H](Cc1ccc(O)cc1)NC(=O)[C@@H](CCC(=O)O)NC(=O)CN1CCN(CC(=O)O)CCN(CC(=O)O)CCN(CC(=O)O)CC1 [[^177Lu]Lu-2, metal not drawn] ({DOTA}-[dE]YPGW[NMeNle]D[1Nal]-NH2)	0.17
